- Test system: MS2 coat protein
- TEST_METHOD_NOTES: apparent KD of MS2 coat protein; designed switch direction (-1 OFF switch, 1 ON switch): 1; higher = weaker reporter binding
- TEST_PARAMETERS: input ligand: microRNA oligo, concentration not stated
OBSERVED_PROPERTY: apparent KD of MS2 coat protein (nM)
Unit nM implied. Number only.

Input line: Form field: reported apparent KD of MS2 coat protein of GUUACAUGAGGAUCACCCAUGUAUGUGUGGGAGUAAGUGUCUUAGGAUAUCUAGUAUGUAAUUUAAGAGAAGGAAGAUUGUUGU [JMF's solution 56] (Eterna round: R96, puzzle: Same State NG 3)
Output line: 264

Input line: Reported apparent KD of MS2 coat protein, sequence GUCAGCGAUUGAGGAUAUCACGUCGAAUAGACGUGAGAAGGCGAUCAUAACAUGAGGAUCACCCAUGUAUUACAUGAAGCUGAC [SSNG1/5-A1] (Eterna round: R96, puzzle: Same State NG 1) : ____
Output line: 22.4

Input line: Which value of apparent KD of MS2 coat protein has been reported for AAGAUACAUGAGGAUCACCCAUGUCGAGAGAGACGAGGAUAUCUGAAUCGAUUAGAUUACGGAGAAGGCGUGAAAA [LROPPY Same State 1 - v07_deltaG=1.9] (Eterna round: R96, puzzle: Same State 1) in the records?
Output line: 22.2

---

- Tested on: MS2 coat protein
- TEST_METHOD_NOTES: apparent KD of MS2 coat protein; designed switch direction (-1 OFF switch, 1 ON switch): 1; higher = weaker reporter binding
- TEST_PARAMETERS: input ligand: none
Rule: apparent KD of MS2 coat protein under 0.09 µM gives false, otherwise true.

Input line: Entry AUUGCUAUCACAGGAUAUCAUGCGAAAAUUGCGUGAGAAGGGUGGACUCUGUCAUUCACGGAGGACAUGAGGAUCACCCAUGUC [SameState NG1 #81] (Eterna round: R96, puzzle: Same State NG 1) : is its apparent KD of MS2 coat protein no less than 0.09 µM?
Output line: false

Input line: Determine whether measured apparent KD of MS2 coat protein meets or exceeds 0.09 µM for UGGCUCAGAGCAGGAUAUAUGCGAUCACAUGAGGAUCACCCAUGUCUCGAGCUUCGGCUCGAGGCAUAGAAGGGCUCUGAGCCA [SSNG2/4-B2] (Eterna round: R96, puzzle: Same State NG 2)
Output line: false

Input line: Hi, just wondering whether UGGCUGGUGCUAGGAUAUGCAUGAGGCCUCCUCGUAGAAGGAGCACGACAUGAGGAUCACCCAUGUAGCCGUCCGUAGACGGCU [salish99_SSNG1_r04_011] (Eterna round: R96, puzzle: Same State NG 1) shows apparent KD of MS2 coat protein of 0.09 µM or higher.
Output line: false

Input line: Quick check, apparent KD of MS2 coat protein >= 0.09 µM? CGACACACGGCAGGAUAUGCUUAGCAAAGCUAAGCAGAAGGGCCUCAUGUCGUGGAAACGUGACAUGAGGAUCACCCAUGUCGC [Omei SS(NG)1 C] (Eterna round: R96, puzzle: Same State NG 1)
Output line: false

Input line: Could you tell me if the measured apparent KD of MS2 coat protein of AAGAAAGACGCAGGAUAUCAGCGCAAACCGCACUGAGAAGGGUGAGACAUGAGGAUCACCCAUGUAACACGGCAAAACGCCGUG [Lausgeledi] (Eterna round: R96, puzzle: Same State NG 1) reaches 0.09 µM or more?
Output line: true

Input line: Hi, just wondering whether AUUAUUAAUGCAGGAUAUGAUUAACAUGAGGAUCACCCAUGUGGUGUUGUGAGUAAGGAGAGUGAUCAGAAGGGCAUAUUUUUU [JMF's solution 9] (Eterna round: R96, puzzle: Same State NG 2) shows apparent KD of MS2 coat protein of 0.09 µM or higher.
Output line: true

Input line: State whether the measured apparent KD of MS2 coat protein reaches 0.09 µM, counting equality as reaching it, for GUAGCAUACCGAGGAUAUUCAUAUUAUAAACAUGAGGAUCACCCAUGUGGCCGAUUACGGCCUUGGGAGAAGGCGGAAUGCUAC [Xeonanis - 20 Mod17] (Eterna round: R96, puzzle: Same State NG 2)
Output line: true

Input line: Decide: is the reported value of apparent KD of MS2 coat protein for AUAUGAGGAGCAGGAUAUGCGAAGAAGAAAGAAGUAGAAGGGCUCAUGGGACGACAUGAGGAUCACCCAUGUACUACCCGAUGA [AK SSNG1-V2-8] (Eterna round: R96, puzzle: Same State NG 1) equal to or greater than 0.09 µM?
Output line: false
